Attribution: ChEMBL document CHEMBL3872205

assay: MRT (0 to 72 hrs) in Wistar rat lung at 30 mg/kg, po by HPLC analysis; format: ADME, organism-based
recorded endpoint: MRT last (h)
Report the figure in h without appending any unit label.

What value of measured MRT last is listed for CCCCC1=NC2(CCCC2)C(=O)N1Cc1ccc2c(ccn2-c2ccccc2-c2nnn[nH]2)c1 ?
4.85

###

experiment: Tmax in Wistar rat spleen at 10 mg/kg, po by HPLC analysis; format: ADME, organism-based
recorded endpoint: Tmax (h)
// units = h; emit number, no label

Which Tmax is reported for this molecule? CCCCC1=NC2(CCCC2)C(=O)N1Cc1ccc2c(ccn2-c2ccccc2-c2nnn[nH]2)c1
2

###

test: Half life in Wistar rat brain at 10 mg/kg, po by HPLC analysis; format: ADME, organism-based
recorded endpoint: half-life
Could you kindly put the unit after your number?

Given the compound CCCCC1=NC2(CCCC2)C(=O)N1Cc1ccc2c(ccn2-c2ccccc2-c2nnn[nH]2)c1 , what is its reported half-life?
164 min

###

assay: MRT (0 to 72 hrs) in Wistar rat liver at 15 mg/kg, po by HPLC analysis; assay type: ADME, organism-based
recorded endpoint: MRT last (h)
Express the result in h but write the number alone.

Which measured MRT last value corresponds to CCCCC1=NC2(CCCC2)C(=O)N1Cc1ccc2c(ccn2-c2ccccc2-c2nnn[nH]2)c1 ?
4.77

###

assay: MRT (0 to infinity) in Wistar rat kidney at 10 mg/kg, po by HPLC analysis; format: ADME, organism-based
recorded endpoint: MRT inf

Returns the measured MRT inf for the input molecule. Input: CCCCC1=NC2(CCCC2)C(=O)N1Cc1ccc2c(ccn2-c2ccccc2-c2nnn[nH]2)c1
25.3 h

###

assay: AUC (0 to 72 hrs) in Wistar rat plasma at 10 mg/kg, po by HPLC analysis; assay type: ADME, organism-based; design: time < 72 hr, dose 10 mg/kg, route oral
recorded endpoint: AUC(0-t) at 72 h
Please format your answer as a value with the unit trailing.

Please look up its AUC(0-t) at 72 h: CCCCC1=NC2(CCCC2)C(=O)N1Cc1ccc2c(ccn2-c2ccccc2-c2nnn[nH]2)c1
6110 ng·h/mL

###

assay: Tmax in Wistar rat plasma at 15 mg/kg, po by HPLC analysis; type: ADME, organism-based
recorded endpoint: Tmax (h)
Report only the number, with the unit h understood.

Give its Tmax value. Item: CCCCC1=NC2(CCCC2)C(=O)N1Cc1ccc2c(ccn2-c2ccccc2-c2nnn[nH]2)c1
4.33

###

experiment: MRT (0 to infinity) in Wistar rat Heart at 30 mg/kg, po by HPLC analysis; format: ADME, organism-based
recorded endpoint: MRT inf (h)
Your answer should be a plain number; it is taken to be in h.

Please give the measured MRT inf for this molecule: CCCCC1=NC2(CCCC2)C(=O)N1Cc1ccc2c(ccn2-c2ccccc2-c2nnn[nH]2)c1
28.1

###

test: AUC (0 to 72 hrs) in Wistar rat kidney at 15 mg/kg, po by HPLC analysis; assay type: ADME, organism-based; set-up: dose 15 mg/kg, time < 72 hr, route oral
recorded endpoint: AUC(0-t) at 72 h (ng·h/mL)
# unit: ng·h/mL | format: bare number

Given CCCCC1=NC2(CCCC2)C(=O)N1Cc1ccc2c(ccn2-c2ccccc2-c2nnn[nH]2)c1 , state its recorded AUC(0-t) at 72 h.
5730
